# TARGET_DESC: Thyrotropin receptor (Homo sapiens) (UniProt P16473)
# Sequence (P16473 whole entry, looked up): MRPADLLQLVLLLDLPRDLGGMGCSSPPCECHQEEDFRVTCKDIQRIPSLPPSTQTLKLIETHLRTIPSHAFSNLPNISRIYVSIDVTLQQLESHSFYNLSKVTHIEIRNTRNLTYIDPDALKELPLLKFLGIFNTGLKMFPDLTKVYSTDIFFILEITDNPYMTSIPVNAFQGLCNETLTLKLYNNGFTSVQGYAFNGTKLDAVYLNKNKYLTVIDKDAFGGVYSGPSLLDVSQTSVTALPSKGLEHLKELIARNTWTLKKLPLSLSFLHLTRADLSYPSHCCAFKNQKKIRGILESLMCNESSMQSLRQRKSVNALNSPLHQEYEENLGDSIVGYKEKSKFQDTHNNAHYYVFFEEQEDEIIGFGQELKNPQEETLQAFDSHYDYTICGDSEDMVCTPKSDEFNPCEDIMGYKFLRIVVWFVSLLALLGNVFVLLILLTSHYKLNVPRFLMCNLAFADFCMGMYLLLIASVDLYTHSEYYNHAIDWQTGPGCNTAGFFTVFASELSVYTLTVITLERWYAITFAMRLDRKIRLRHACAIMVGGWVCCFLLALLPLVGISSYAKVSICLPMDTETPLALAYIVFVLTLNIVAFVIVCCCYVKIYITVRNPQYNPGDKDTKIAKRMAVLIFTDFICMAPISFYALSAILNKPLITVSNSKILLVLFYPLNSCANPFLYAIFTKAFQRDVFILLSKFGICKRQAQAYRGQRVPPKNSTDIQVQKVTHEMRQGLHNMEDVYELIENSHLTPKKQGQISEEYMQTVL
# PROTOCOL_NOTES: qHTS assay to identify small molecule antagonists of the thyroid stimulating hormone receptor (TSHR) signaling pathway (AID 1259385); further: nearly all actives have a fitted effect of over 20% in size
# RUN_CONDITIONS: TSHR-HEK293 cAMP HTRF, TSH-stimulated antagonist mode; series mostly up to 92.4 µM
# Procedure: U.S. Tox21 Program National Center for Advancing Translational Sciences [NCATS] NIH Chemical Genomics Center [NCGC] U.S. Environmental Protection Agency [EPA] National Institutes of Environmental Health Sciences [NIEHS] National Toxicology Program [NTP] […] Tox21 Assay Protocol Summary: TSHR-Hek293 cells were dispensed at 800 cells/4uL/well in 1536-well white plates using a Multidrop dispenser. […] The fluorescence intensity in the plates was measured using an Envision plate reader. […]
Results filed as inconclusive are left out. The source made the active and inactive calls. The call rests on the fitted dose curve.
In this exercise, the only acceptable responses are active, inactive

**Query** Please let me know the test result on file for OC(CCl)CCl .
**Result** inactive

**Query** Please let me know the test result on file for CC(C)OC(=O)C(C)(C)Oc1ccc(C(=O)c2ccc(Cl)cc2)cc1 .
**Result** active

**Query** Please let me know the test result on file for c1ccc2c(c1)c1cccc3ccc4cccc2c4c31 .
**Result** inactive

**Query** Please let me know the test result on file for COC(C)COC(C)COC(C)CO (stereo unspecified) .
**Result** inactive

**Query** Please let me know the test result on file for Cc1ccc(C(=O)c2cc(O)c(O)c([N+](=O)[O-])c2)cc1 .
**Result** inactive

**Query** Please let me know the test result on file for CN(C)CCN(Cc1cccs1)c1ccccn1 .
**Result** inactive

**Query** Please let me know the test result on file for COc1c(Cl)c(Cl)c(Cl)c(Cl)c1Cl .
**Result** inactive

**Query** Please let me know the test result on file for OC1CCCCCCCCCCC1 .
**Result** inactive

**Query** Please let me know the test result on file for Cc1ccc(C)c(O)c1C .
**Result** inactive

**Query** Please let me know the test result on file for COc1ccccc1/C=C/C=O .
**Result** inactive

**Query** Please let me know the test result on file for CCCCNS(=O)(=O)c1ccccc1 .
**Result** inactive

**Query** Please let me know the test result on file for CCCCCCCCCCCO .
**Result** inactive

**Query** Please let me know the test result on file for CC(C)OC=O .
**Result** inactive

**Query** Please let me know the test result on file for COc1ccc(OC)c(C(O)CNC(=O)CN)c1 (stereo unspecified) .
**Result** inactive

**Query** Please let me know the test result on file for CN(C)C(=N)N=C(N)N .
**Result** inactive

**Query** Please let me know the test result on file for Nc1ccc(S(=O)(=O)Nc2cnc3ccccc3n2)cc1 .
**Result** inactive

**Query** Please let me know the test result on file for NNc1ccc(C(=O)O)cc1 .
**Result** inactive

**Query** Please let me know the test result on file for COC(=O)CCC(=O)OC .
**Result** inactive

**Query** Please let me know the test result on file for Clc1nc(Cl)c(Cl)c(Cl)c1Cl .
**Result** inactive

**Query** Please let me know the test result on file for c1cc(N(CC2CO2)CC2CO2)ccc1OCC1CO1 (stereo unspecified) .
**Result** inactive

**Query** Please let me know the test result on file for CN1C(C(=O)Nc2ccccn2)=C(O)c2ccccc2S1(=O)=O .
**Result** inactive

**Query** Please let me know the test result on file for CCCc1c(OCCCCc2nn[nH]n2)ccc(C(C)=O)c1O .
**Result** inactive

**Query** Please let me know the test result on file for CCC(C)CO (stereo unspecified) .
**Result** inactive

**Query** Please let me know the test result on file for CC(C)=CCCC(C)CCO (stereo unspecified) .
**Result** inactive

**Query** Please let me know the test result on file for Cc1ncc[nH]1 .
**Result** inactive

**Query** Please let me know the test result on file for c1cc(-c2ccncc2)ccn1 .
**Result** inactive

**Query** Please let me know the test result on file for CCCCCCCCCC(=O)OC .
**Result** inactive

**Query** Please let me know the test result on file for O=[N+]([O-])c1ccc2c(c1)Cc1ccccc1-2 .
**Result** inactive

**Query** Please let me know the test result on file for O=C(/C=C/C=C/c1ccc2c(c1)OCO2)N1CCCCC1 .
**Result** inactive

**Query** Please let me know the test result on file for O=C(/C=C/c1ccccc1)OCc1ccccc1 .
**Result** inactive

**Query** Please let me know the test result on file for Cc1c(OCC(F)(F)F)ccnc1CS(=O)c1nc2ccccc2[nH]1 (stereo unspecified) .
**Result** inactive
